Data provenance: the supplement of paper PMC10883282

- Test system: SW684
- test: relative viability vs DMSO control (72 h) (fraction); higher = more viable cells
- condition_description: 3.333 µM
Sorting guide: entries reporting relative viability beneath 1 go in the fulfilled pile, the rest go in the not fulfilled pile.

Consider the worked cases shown below.
> print(dat)
                            chemical.smiles  assay.system    group.label
1  Cc1ccc(F)c(NC(=O)Nc2ccc(-c3cccc4[nH]nc(N)c34)cc2)c1         SW684  not fulfilled
2  C[C@@H]1CCN(C(=O)CC#N)C[C@@H]1N(C)c1ncnc2[nH]ccc12         SW684  not fulfilled
3  C[C@]1(O)C[C@@H](c2nc(-c3ccc4ccc(-c5ccccc5)nc4c3)c3c(N)nccn32)C1         SW684  not fulfilled

relative viability strictly < 1 for this compound? `C=CC(=O)Nc1cccc(Oc2nc(Nc3ccc(N4CCN(C)CC4)cc3)nc3ccsc23)c1`
fulfilled
